- measurement.target: IDH1 mutant (R132H) (Homo sapiens, UniProt O75874, R132H)
- Sequence (O75874 whole entry R132H): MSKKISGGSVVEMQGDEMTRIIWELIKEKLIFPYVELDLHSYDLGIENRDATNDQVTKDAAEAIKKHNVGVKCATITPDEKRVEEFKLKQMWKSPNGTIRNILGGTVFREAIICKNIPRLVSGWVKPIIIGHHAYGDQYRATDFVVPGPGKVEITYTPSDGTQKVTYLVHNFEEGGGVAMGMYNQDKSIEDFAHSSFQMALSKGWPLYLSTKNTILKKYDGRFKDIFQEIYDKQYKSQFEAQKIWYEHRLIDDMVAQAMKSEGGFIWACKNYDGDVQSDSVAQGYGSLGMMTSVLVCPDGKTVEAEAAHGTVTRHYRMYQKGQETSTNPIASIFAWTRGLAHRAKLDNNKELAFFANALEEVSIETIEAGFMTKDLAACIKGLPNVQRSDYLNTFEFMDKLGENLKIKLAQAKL
- measurement.notes: Mutant IDH1-R132H Fluorescence Assay (Resazurin based)
- stated.conditions: 10 nM IDH1 R132H, 4 mM α-ketoglutarate, NADPH, 1.5 h at room temperature
pIC50: −log10 of the molar value.
reported.metric: pIC50

Some molecules with recorded pIC50:
>>> value_observed("CC[C@H]1COC(=O)N1c1nc(C)nc(N[C@@H](C)c2cc3cc(Cl)c(OC(C)C)cc3[nH]c2=O)n1")
7.12
>>> value_observed("CC[C@H]1COC(=O)N1c1nc(C)nc(N[C@@H](C)c2ccc(Oc3ccc4ccccc4c3)cc2)n1")
6.28
>>> value_observed("CC[C@H]1COC(=O)N1c1nc(C)nc(N[C@H](C)c2ccc(OCc3ccccn3)cc2)n1")
4.77
>>> value_observed("CC[C@H]1COC(=O)N1c1nc(C)nc(N[C@@H](C)c2ccc(Oc3ccc(C)cc3)cc2)n1")
6.47
>>> value_observed("CC[C@H]1COC(=O)N1c1nc(C)nc(N[C@@H](C)c2ccc(Oc3ccccc3)c(F)c2)n1")
6.21
>>> value_observed("CC[C@H]1COC(=O)N1c1nc(C)nc(N[C@@H](C)c2ccc(Nc3ccccc3)cc2)n1")
5.85
>>> value_observed("CC(C)[C@H]1COC(=O)N1c1ncnc(N[C@@H](C)c2ccc(-c3ccc(Cl)cc3)cn2)n1")
5.56
>>> value_observed("CC[C@H]1COC(=O)N1c1nc(C)nc(N[C@@H](C)c2cc3cc(C)ccc3[nH]c2=O)n1")
5.90

P. CC[C@H]1COC(=O)N1c1nc(C)nc(N[C@@H](C)c2ccc(Oc3ccccc3)cc2)n1
Q. CC[C@H]1COC(=O)N1c1nc(C)nc(N[C@@H](C)c2cn3cc(Br)ccc3n2)n1
R. CC[C@H]1COC(=O)N1c1nc(C)nc(N[C@@H](C)c2ccc(Oc3ccccc3)c(-c3ccccc3)c2)n1
Exercise: Arrange the 3 entries by pIC50 so the values rise. Please list the labels in the order you were asked to rank them.
Key: Q, R, P

1. Cc1nc(N[C@@H](C)c2cc3cc(Cl)ccc3[nH]c2=O)nc(N2C(=O)OC[C@@H]2[C@H](C)F)n1
2. CC(C)[C@H]1COC(=O)N1c1ncnc(N[C@@H](C)c2cc3cc(Cl)ccc3[nH]c2=O)n1
Exercise: Between 1 and 2 , which one has the lower reported pIC50 value? Please respond with the label that marks your chosen entry.
Key: 2
(2: 6.44, 1: 6.75)

a. CC[C@H]1COC(=O)N1c1nc(N[C@@H](C)c2ccc(Oc3ccccc3)cc2)nc(C2CC2)n1
b. CC(C)[C@H]1COC(=O)N1c1ncnc(N[C@@H](C)c2ccc(-c3ccc(F)cc3)cn2)n1
c. CC[C@H]1COC(=O)N1c1nc(C)nc(N[C@@H](C)c2ccc(CN3CCN(C(C)=O)CC3)cc2)n1
d. CC(C)[C@H]1COC(=O)N1c1ncnc(N[C@@H](C)c2cn(-c3ccc(Cl)cc3)cn2)n1
Exercise: Arrange the 4 entries by pIC50 so the values rise. Please list the labels in the order you were asked to rank them.
Key: c, b, a, d
(c: 4.67, b: 5.05, a: 5.61, d: 6.11)

a. CC[C@H]1COC(=O)N1c1nc(C)nc(N[C@@H](C)c2ccc(Oc3ccccc3)nc2)n1
b. CC[C@H]1COC(=O)N1c1nc(C)nc(N[C@@H](C)c2ccc(Oc3ccc(F)cc3)cc2)n1
c. CC[C@H]1COC(=O)N1c1nc(C)nc(N[C@H](C)c2ccc(Oc3cccnc3C(F)(F)F)cc2)n1
Exercise: Arrange the 3 entries by pIC50 so the values rise. Please list the labels in the order you were asked to rank them.
Key: c, a, b
(c: 4.99, a: 5.23, b: 6.51)

I. CC[C@H]1COC(=O)N1c1nc(C)nc(N[C@H](C)c2cc3cc(Cl)c(OC)cc3[nH]c2=O)n1
II. Cc1cc(-c2ccc([C@H](C)Nc3ncnc(N4C(=O)OC[C@@H]4C(C)C)n3)nc2)ccc1F
Exercise: Between I and II , which one has the lower reported pIC50 value? Please respond with the label that marks your chosen entry.
Key: I
